- method: MTT assay, toxicity on HEKa cells
- Assay type: cell-based
- condition.context: human, 0.1 mg/mL peptide, normalized to non-treated cells, read-out: Cell viability
Peptide text beside a SMILES is read from it.
quantity.name: viability at 24 h (%)
Express your answer in %, writing the number without its unit.

Provide one value: measured viability at 24 h of CC(C)C[C@@H]1NC(=O)[C@H](C)NC(=O)[C@H](CCCNC(=N)N)NC(=O)[C@H](Cc2ccccc2)NC(=O)[C@H](Cc2c[nH]c3ccccc23)NC(=O)[C@H](Cc2c[nH]cn2)NC1=O [Peptide A, cyclo-Trp-Phe-Arg-Ala-Leu-His] (cyclo(ALHWFR))
88.3

Provide one value: measured viability at 24 h of CC(C)C[C@@H]1NC(=O)[C@H](C)NC(=O)[C@H](Cc2c[nH]cn2)NC(=O)[C@H](Cc2c[nH]c3ccccc23)NC(=O)[C@H](Cc2ccccc2)NC(=O)[C@H](CCCNC(=N)N)NC1=O [Peptide B, cyclo-Phe-Trp- His- Ala-Leu-Arg]
85.8

###

- method: MTT assay, toxicity on HDFa cells
- Assay type: cell-based
- condition.context: human, 0.001 mg/mL peptide, normalized to non-treated cells, read-out: Cell viability
Peptide text beside a SMILES is read from it.
quantity.name: viability at 24 h (%)
Express your answer in %, writing the number without its unit.

Provide one value: measured viability at 24 h of CC(C)C[C@@H]1NC(=O)[C@H](C)NC(=O)[C@H](Cc2c[nH]cn2)NC(=O)[C@H](Cc2c[nH]c3ccccc23)NC(=O)[C@H](Cc2ccccc2)NC(=O)[C@H](CCCNC(=N)N)NC1=O [Peptide B, cyclo-Phe-Trp- His- Ala-Leu-Arg]
100

Provide one value: measured viability at 24 h of CC(C)C[C@@H]1NC(=O)[C@H](C)NC(=O)[C@H](CCCNC(=N)N)NC(=O)[C@H](Cc2ccccc2)NC(=O)[C@H](Cc2c[nH]c3ccccc23)NC(=O)[C@H](Cc2c[nH]cn2)NC1=O [Peptide A, cyclo-Trp-Phe-Arg-Ala-Leu-His] (cyclo(ALHWFR))
101

###

For each entry below, report its viability at 24 h value.
- method: MTT assay, toxicity on HEKa cells
- Type: cell-based
- condition.context: human, 0.05 mg/mL peptide, normalized to non-treated cells, read-out: Cell viability
- Experimental: Toxicity of cycled peptides A and B was analyzed on human dermal fibroblasts (HDFa) and adult human epidermal keratinocytes HEKa cells by MTT assay. A stock solution of the peptide was prepared in distilled water at 25 mg/mL. […] Absorbance values were normalized using the data obtained for non-treated cells (control), obtaining the % of viability shown in Tables 1 and 2. […]
Peptide text beside a SMILES is read from it.
Express your answer in %, writing the number without its unit.

Provide one value: measured viability at 24 h of CC(C)C[C@@H]1NC(=O)[C@H](C)NC(=O)[C@H](Cc2c[nH]cn2)NC(=O)[C@H](Cc2c[nH]c3ccccc23)NC(=O)[C@H](Cc2ccccc2)NC(=O)[C@H](CCCNC(=N)N)NC1=O [Peptide B, cyclo-Phe-Trp- His- Ala-Leu-Arg]
91.4

Provide one value: measured viability at 24 h of CC(C)C[C@@H]1NC(=O)[C@H](C)NC(=O)[C@H](CCCNC(=N)N)NC(=O)[C@H](Cc2ccccc2)NC(=O)[C@H](Cc2c[nH]c3ccccc23)NC(=O)[C@H](Cc2c[nH]cn2)NC1=O [Peptide A, cyclo-Trp-Phe-Arg-Ala-Leu-His] (cyclo(ALHWFR))
93.8
